Experiment: Half life in human liver microsomes
Assay type: ADME, Microsome

# Molecule, half-life (min)
measured = [
    ("COC1[C@H](NC(=O)CC2OC(COCc3ccccc3)C(OCc3ccccc3)C(OCc3ccccc3)C2OCc2ccccc2)CC[C@H]2[C@H]3Cc4ccc(O)cc4[C@@]12CCN3C (stereo partly specified)", 42.9),
]

---

half-life values, listed per item
Experiment: Half life in rat liver microsomes
Assay type: ADME, Microsome
Quantity Kind: half-life (min)

# Molecule, Quantitative Result
rows = [
    ("COC1[C@H](NC(=O)CC2OC(COCc3ccccc3)C(OCc3ccccc3)C(OCc3ccccc3)C2OCc2ccccc2)CC[C@H]2[C@H]3Cc4ccc(O)cc4[C@@]12CCN3C (some centres not stated)", 19.8),
    ("COC1[C@H](NC(=O)CC2OC(COCc3ccccc3)C(OCc3ccccc3)C(OCc3ccccc3)C2OCc2ccccc2)C=C[C@H]2[C@H]3Cc4ccc(O)cc4[C@@]12CCN3C (some centres not stated)", 24.6),
]
